Entries and their Kd
molecular target: recombinant human BCMA-his protein (Acro biosystems, Cat #BCA-H522Y) (human) (UniProt Q02223); experiment: BLI Octet RED96, antibody on AHC sensor, BCMA-his in solution
Sequence (Q02223 1-54, stated change not applied): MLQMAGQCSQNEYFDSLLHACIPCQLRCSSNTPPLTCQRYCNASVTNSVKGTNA
Enter your answer as a number in nM; do not include the unit.

BINDER	PROPERTY_NAME	VALUE_OBSERVED
huB1H2-V21 (antibody, human IgG1, kappa, V domains shown) VH: QVQLVQSGAEVKKPGASVKVSCKASGYTLTNYVMHWMRQAPGQGLEWIGFIIPFNDGTKYNEHFKGRVTITRDTSISTAYMQLSSLRSEDTAVYYCARYDFEGYFDVWGQGTLVTVSS VL: DIQMTQSPSSLSASVGDRVTITCSASQDITNFLNWYQQKPGKAPKLLIYSTSRLHSGVPSRFSGSGSGTDYTLTISSLQPEDIATYYCQQYSNLPWTFGQGTKVEIKR	Kd	7.12

Sure, the documented Kd for huB1H2-V20 (antibody, human IgG1, kappa, V domains shown) VH: QVQLVQSGAEVKKPGASVKVSCKASGYTLTNYVMHWVRQAPGQGLEWIGFIIPFNDGTKYNEHFKGRVTITRDTSISTAYMQLSSLRSEDTAVYYCARYDFEGYFDVWGQGTLVTVSS VL: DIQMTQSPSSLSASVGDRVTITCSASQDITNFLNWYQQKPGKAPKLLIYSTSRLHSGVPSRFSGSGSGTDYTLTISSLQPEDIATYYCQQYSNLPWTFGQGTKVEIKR is 6
